- target_entity: EiTIM (triosephosphate isomerase of E. intestinalis) (Encephalitozoon intestinalis)
- Construct: full length, synthetic codon-optimised gene (silent A479G) in pET-3aHisTEV, E. coli BL21(DE3)pLysS; N-terminal His-tag removed with TEV protease; homodimer
- Sequence (E0SA87 1-242): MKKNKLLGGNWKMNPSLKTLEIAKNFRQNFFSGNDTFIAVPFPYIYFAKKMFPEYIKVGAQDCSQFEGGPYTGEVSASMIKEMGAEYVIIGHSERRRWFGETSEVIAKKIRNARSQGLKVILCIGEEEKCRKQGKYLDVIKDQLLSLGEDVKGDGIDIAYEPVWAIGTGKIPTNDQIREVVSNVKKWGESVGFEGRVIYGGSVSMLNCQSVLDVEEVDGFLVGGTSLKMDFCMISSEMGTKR
- experimental_details: residual activity after incubation, alpha-GDH coupled assay (NADH, […] nm)
- reported_conditions: read-out: 50% inactivation
Recorded IC50 values for a group of compounds are listed next.
Report the value in µM with no unit label.

{"compound": "CC(=C(CCOC(=O)C(C)C)SSC(CCOC(=O)C(C)C)=C(C)N(C=O)Cc1cnc(C)nc1N)N(C=O)Cc1cnc(C)nc1N (stereo in doubt)", "unit_descriptor": "µM", "reported": 2.5}

Need IC50 of "O=C(O)c1cc(SSc2ccc([N+](=O)[O-])c(C(=O)O)c2)ccc1[N+](=O)[O-]" , thanks.
25
